# testedTarget: CFTR-R117H (Homo sapiens, UniProt P13569, R117H)
# Sequence (P13569 whole entry R117H): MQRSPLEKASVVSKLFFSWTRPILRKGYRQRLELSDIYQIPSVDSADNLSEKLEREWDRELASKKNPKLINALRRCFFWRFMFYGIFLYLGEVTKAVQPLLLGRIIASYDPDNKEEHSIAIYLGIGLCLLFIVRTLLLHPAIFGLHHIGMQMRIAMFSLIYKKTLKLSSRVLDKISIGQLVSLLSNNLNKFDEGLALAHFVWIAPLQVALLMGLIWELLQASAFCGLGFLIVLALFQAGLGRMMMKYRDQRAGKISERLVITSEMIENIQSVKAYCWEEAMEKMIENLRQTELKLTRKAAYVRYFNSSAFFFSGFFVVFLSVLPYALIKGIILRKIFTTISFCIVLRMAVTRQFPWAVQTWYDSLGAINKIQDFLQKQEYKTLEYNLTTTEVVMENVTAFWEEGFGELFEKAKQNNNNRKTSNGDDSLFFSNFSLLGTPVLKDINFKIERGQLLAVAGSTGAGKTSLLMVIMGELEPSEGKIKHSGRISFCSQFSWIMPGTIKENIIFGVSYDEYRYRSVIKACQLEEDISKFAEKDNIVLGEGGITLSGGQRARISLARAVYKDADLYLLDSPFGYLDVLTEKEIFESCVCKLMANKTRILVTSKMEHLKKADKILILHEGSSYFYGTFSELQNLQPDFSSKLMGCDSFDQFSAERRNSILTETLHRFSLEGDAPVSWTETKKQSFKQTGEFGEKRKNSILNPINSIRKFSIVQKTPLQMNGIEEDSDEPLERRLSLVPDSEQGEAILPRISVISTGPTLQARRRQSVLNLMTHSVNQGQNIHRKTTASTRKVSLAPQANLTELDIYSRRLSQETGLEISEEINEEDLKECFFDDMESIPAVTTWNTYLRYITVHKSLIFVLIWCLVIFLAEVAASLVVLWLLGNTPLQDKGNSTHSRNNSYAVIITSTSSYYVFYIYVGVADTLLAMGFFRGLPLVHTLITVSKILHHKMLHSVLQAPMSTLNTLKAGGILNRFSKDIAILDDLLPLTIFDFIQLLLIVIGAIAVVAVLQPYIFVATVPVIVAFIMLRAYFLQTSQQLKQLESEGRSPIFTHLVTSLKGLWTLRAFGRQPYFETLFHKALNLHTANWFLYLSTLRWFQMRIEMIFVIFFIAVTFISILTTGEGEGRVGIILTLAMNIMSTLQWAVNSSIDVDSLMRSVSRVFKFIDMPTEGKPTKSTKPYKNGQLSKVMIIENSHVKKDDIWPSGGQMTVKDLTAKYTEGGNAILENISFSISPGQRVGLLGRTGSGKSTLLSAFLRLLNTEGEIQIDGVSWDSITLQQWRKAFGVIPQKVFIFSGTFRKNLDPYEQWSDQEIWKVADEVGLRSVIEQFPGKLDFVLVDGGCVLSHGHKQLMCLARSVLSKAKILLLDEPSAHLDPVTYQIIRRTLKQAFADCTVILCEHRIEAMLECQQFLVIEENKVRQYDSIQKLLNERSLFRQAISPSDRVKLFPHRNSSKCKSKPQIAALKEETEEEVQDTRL
# test: YFP-halide influx assay for the CFTR-R117H
# conditionsUsed: CFTR-R117H mutant; read-out: EC50 measured by YFP-halide influx assay for the CFTR-R117H
reportedProperty: EC50 (nM)
// return numeric value only (unit: nM, not printed)

Please review the following examples before continuing.
{"chemicalString": "Cc1[nH]nc(C(=O)Nc2sc3c(c2C(N)=O)CC(C)(C)OC3(C)C)c1Cl", "testValue": 301}
{"chemicalString": "CC1(C)Cc2c(sc(NC(=O)C3(O)CCOCC3)c2C(N)=O)C(C)(C)O1", "testValue": 1580}
{"chemicalString": "CC1(C)Cc2c(sc(NC(=O)c3ccnn3CC(F)(F)F)c2C(N)=O)C(C)(C)O1", "testValue": 780}

For "CCOCCc1c[nH]nc1C(=O)Nc1sc2c(c1C(N)=O)CC(C)(C)OC2(C)C" the compound record lists EC50 as 147

The compound "CC1(C)Cc2c(sc(NC(=O)c3cc(C4CC4)[nH]n3)c2C(N)=O)C(C)(C)O1" showed EC50 equal to 177

The reported EC50 of the compound "CC1(C)Cc2c(sc(NC(=O)c3ccn(CC(F)(F)F)n3)c2C(N)=O)C(C)(C)O1" was 724

Looking up "CC(C)c1cc(C(=O)Nc2sc3c(c2C(N)=O)CC(C)(C)OC3(C)C)n[nH]1" , I found its EC50 recorded as 207

The reported value for "CC1(C)Cc2c(sc(NC(=O)c3cnco3)c2C(N)=O)C(C)(C)O1" in terms of EC50 is 807

###

# testedTarget: CFTR ΔF508 (Homo sapiens, UniProt P13569, DEL508-508)
# Construct: host or cells: primary bronchial epithelial cells from CF patients homozygous for ΔF508, pre-treated with VX809
# Sequence (P13569 with tags, fused parts or gaps DEL508-508): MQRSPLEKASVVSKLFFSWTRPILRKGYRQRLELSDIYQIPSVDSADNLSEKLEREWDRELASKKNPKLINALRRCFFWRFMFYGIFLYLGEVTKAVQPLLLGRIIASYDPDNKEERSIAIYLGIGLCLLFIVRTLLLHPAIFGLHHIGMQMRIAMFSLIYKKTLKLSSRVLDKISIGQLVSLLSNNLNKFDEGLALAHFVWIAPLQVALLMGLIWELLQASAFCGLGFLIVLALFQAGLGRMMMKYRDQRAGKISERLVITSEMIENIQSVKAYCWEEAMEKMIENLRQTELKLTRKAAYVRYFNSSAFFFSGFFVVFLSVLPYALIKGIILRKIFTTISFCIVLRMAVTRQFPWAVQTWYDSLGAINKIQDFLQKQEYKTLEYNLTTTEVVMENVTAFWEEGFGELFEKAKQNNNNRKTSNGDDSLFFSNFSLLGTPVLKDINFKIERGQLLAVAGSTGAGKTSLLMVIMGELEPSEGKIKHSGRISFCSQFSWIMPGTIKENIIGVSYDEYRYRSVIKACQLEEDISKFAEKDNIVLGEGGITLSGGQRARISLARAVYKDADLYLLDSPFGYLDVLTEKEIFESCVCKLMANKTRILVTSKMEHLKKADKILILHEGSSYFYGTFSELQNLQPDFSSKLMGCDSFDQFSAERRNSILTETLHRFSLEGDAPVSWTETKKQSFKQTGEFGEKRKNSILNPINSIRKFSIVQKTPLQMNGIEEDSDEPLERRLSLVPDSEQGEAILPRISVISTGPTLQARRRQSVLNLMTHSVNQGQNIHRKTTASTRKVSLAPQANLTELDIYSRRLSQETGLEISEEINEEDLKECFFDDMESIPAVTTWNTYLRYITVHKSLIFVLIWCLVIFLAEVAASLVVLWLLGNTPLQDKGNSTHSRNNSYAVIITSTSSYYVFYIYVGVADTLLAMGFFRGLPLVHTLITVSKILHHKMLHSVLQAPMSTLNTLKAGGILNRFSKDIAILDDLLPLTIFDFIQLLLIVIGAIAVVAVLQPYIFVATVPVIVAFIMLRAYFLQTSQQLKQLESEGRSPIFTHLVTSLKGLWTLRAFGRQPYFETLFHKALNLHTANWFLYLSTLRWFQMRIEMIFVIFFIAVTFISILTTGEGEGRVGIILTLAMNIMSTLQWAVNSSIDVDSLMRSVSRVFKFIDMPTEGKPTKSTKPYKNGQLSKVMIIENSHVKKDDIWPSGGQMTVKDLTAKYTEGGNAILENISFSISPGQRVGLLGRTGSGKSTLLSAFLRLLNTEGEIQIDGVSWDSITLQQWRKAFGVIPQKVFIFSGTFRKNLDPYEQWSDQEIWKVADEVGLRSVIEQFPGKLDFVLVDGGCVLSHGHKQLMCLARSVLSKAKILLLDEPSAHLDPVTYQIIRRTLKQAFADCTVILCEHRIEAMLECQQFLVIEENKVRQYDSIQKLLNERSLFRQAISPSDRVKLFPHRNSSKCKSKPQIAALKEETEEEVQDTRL
# test: TECC assay, primary bronchial epithelial cells from CF patients homozygous for CFTR ΔF508
# Format: cell-based
# conditionsUsed: TECC assay, compound at 50 nM (Table XV)
ΔIsc values for the compounds below.
Numbers only here, please. The scale is μA/cm^2.

Solved entries:
{"compound": "NC(=O)c1c(NC(=O)c2ccccc2Cl)sc2c1CCCC2 [B, reference compound]", "testedTarget": "CFTR ΔF508 (Homo sapiens, UniProt P13569, DEL508-508)", "ΔIsc [μA/cm^2]": 0.1807}
{"compound": "NC(=O)c1c(NC(=O)c2cc[nH]n2)sc2c1CCOC2 [E, reference compound]", "testedTarget": "CFTR ΔF508 (Homo sapiens, UniProt P13569, DEL508-508)", "ΔIsc [μA/cm^2]": 0.1663}
{"compound": "CN1CCc2c(sc(NC(=O)c3ccccc3O)c2C(N)=O)C1 [A, reference compound]", "testedTarget": "CFTR ΔF508 (Homo sapiens, UniProt P13569, DEL508-508)", "ΔIsc [μA/cm^2]": "−0.3248"}

The recorded ΔIsc for entry "CC1(C)Cc2c(sc(NC(=O)c3ccn[nH]3)c2C(N)=O)C(C)(C)O1" equals 4.5996

###

# testedTarget: CFTR ΔF508 mutant (Homo sapiens, UniProt P13569, DEL508-508)
# Construct: expressed in transfected cells; host or cells: CFBE41o- (adenoviral transduction)
# Sequence (P13569 with tags, fused parts or gaps DEL508-508): as the sequence (P13569 with tags, fused parts or gaps DEL508-508) above
# test: YFP-halide influx assay for the CFTR-ΔF508 mutation (96 well, CFBE41o- cells)
# Format: cell-based
# conditionsUsed: compounds of the invention, 96 well, forskolin 10.67 μM, read-out: EC50 measured by YFP-halide influx assay for the CFTR-ΔF508
reportedProperty: EC50 (nM)
Please respond with the number in nM and leave the unit unwritten.

{"chemicalString": "CC1(C)Cc2c(sc(NC(=O)c3cc(C(C)(C)C)[nH]n3)c2C(N)=O)C(C)(C)O1", "EC50 / nM": 25.3}
{"chemicalString": "CC1(C)Cc2c(sc(NC(=O)c3n[nH]c4c3COCC4)c2C(N)=O)C(C)(C)O1", "EC50 / nM": 23}
{"chemicalString": "CC1(C)Cc2c(sc(NC(=O)c3ccccc3-c3ncc[nH]3)c2C(N)=O)C(C)(C)O1", "EC50 / nM": 440}

The reported CFTR ΔF508 mutant (Homo sapiens, UniProt P13569, DEL508-508) EC50 of "CC1(C)Cc2c(sc(NC(=O)C(C)(C)O)c2C(N)=O)C(C)(C)O1" is 75.8

###

# testedTarget: CFTR ΔF508 (Homo sapiens, UniProt P13569, DEL508-508)
# Construct: host or cells: primary bronchial epithelial cells from CF patients homozygous for ΔF508, pre-treated with VX809
# test: TECC assay, primary bronchial epithelial cells from CF patients homozygous for CFTR ΔF508
# Assay type: cell-based
# conditionsUsed: TECC assay, compound at 50 nM; difference between ΔIsc with compound and ΔIsc DMSO (baseline)
reportedProperty: Current increase
Value and unit, in that order.

{"molecule": "CC1(C)Cc2c(sc(NC(=O)c3ccn[nH]3)c2C(N)=O)C(C)(C)O1 [Compound 2]", "testedTarget": "CFTR ΔF508 (Homo sapiens, UniProt P13569, DEL508-508)", "reportedProperty": "Current increase", "testValue": "4.9244 μA/cm^2"}
{"molecule": "NC(=O)c1c(NC(=O)c2cc[nH]n2)sc2c1CCOC2 [E, reference compound]", "testedTarget": "CFTR ΔF508 (Homo sapiens, UniProt P13569, DEL508-508)", "reportedProperty": "Current increase", "testValue": "0.4911 μA/cm^2"}
{"molecule": "CN1CCc2c(sc(NC(=O)c3ccccc3O)c2C(N)=O)C1 [A, reference compound]", "testedTarget": "CFTR ΔF508 (Homo sapiens, UniProt P13569, DEL508-508)", "reportedProperty": "Current increase", "testValue": "−0.0559 μA/cm^2"}

// moving on: another record for Current increase
// NC(=O)c1c(NC(=O)c2ccccc2Cl)sc2c1CCCC2 [B, reference compound] : Current increase value = 0.5055 μA/cm^2

###

# testedTarget: CFTR G551D mutant (Homo sapiens, UniProt P13569, G551D)
# Construct: expressed in transfected cells; host or cells: HEK293 (reverse transfection with plasmids)
# Sequence (P13569 whole entry G551D): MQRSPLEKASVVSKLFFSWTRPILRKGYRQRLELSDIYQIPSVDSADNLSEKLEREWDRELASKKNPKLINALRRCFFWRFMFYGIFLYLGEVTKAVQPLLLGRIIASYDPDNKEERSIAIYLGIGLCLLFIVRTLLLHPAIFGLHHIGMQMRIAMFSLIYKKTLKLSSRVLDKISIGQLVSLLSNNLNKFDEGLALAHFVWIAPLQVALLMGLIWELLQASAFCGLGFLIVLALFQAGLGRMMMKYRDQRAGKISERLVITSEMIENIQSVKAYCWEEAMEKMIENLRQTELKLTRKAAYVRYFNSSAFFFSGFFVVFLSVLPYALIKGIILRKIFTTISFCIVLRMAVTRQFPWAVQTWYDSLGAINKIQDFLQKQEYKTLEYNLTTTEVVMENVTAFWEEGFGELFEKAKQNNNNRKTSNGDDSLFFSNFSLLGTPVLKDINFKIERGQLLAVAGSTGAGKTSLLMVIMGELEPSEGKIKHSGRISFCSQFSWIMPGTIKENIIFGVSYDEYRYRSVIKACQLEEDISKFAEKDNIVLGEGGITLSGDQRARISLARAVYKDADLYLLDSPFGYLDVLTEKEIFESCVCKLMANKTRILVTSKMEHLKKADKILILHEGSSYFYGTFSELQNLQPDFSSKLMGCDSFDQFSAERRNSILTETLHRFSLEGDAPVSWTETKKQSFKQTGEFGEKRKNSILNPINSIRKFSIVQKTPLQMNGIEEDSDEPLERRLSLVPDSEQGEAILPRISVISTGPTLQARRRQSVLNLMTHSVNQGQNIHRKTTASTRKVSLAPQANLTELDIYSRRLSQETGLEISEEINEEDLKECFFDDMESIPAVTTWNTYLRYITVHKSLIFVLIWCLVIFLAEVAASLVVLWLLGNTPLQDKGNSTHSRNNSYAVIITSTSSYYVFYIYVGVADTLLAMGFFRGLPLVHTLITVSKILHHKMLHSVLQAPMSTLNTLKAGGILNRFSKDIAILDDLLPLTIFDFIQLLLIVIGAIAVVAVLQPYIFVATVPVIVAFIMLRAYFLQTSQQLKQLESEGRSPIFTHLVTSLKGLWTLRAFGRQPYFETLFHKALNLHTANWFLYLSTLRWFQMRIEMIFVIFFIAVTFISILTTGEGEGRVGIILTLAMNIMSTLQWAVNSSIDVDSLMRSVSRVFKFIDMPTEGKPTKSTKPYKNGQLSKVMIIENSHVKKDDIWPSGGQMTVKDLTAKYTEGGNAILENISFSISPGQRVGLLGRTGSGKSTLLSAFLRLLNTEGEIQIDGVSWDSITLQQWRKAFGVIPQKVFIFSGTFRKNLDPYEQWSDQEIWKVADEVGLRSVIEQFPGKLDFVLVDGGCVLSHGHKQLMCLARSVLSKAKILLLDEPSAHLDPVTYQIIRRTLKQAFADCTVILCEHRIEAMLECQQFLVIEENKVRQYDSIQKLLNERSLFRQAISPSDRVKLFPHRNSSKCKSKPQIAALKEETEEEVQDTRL
# test: YFP-halide influx assay for the CFTR-G551D mutation (HEK293 cells)
# Assay type: cell-based
# conditionsUsed: HEK293 cells expressing CFTR G551D and YFP reporter; forskolin 10.67 μM; read-out: EC50 measured by YFP-halide influx assay for the CFTR-G551D
Decide using EC50 alone. Strictly below 2000 nM: fulfilled. Equal to or above 2000 nM: not fulfilled.

{"compound": "CC1(C)Cc2c(sc(NC(=O)c3cn[nH]c3)c2C(N)=O)C(C)(C)O1 [Compound 49]", "testedTarget": "CFTR G551D mutant (Homo sapiens, UniProt P13569, G551D)", "category": "not fulfilled"}
{"compound": "CC1(C)Cc2c(sc(NC(=O)c3ccn(CC(F)(F)F)n3)c2C(N)=O)C(C)(C)O1 [Compound 121]", "testedTarget": "CFTR G551D mutant (Homo sapiens, UniProt P13569, G551D)", "category": "fulfilled"}
{"compound": "CC(C)(C)CC(O)C(=O)Nc1sc2c(c1C(N)=O)CC(C)(C)OC2(C)C (single isomer, unassigned) [Compound 109]", "testedTarget": "CFTR G551D mutant (Homo sapiens, UniProt P13569, G551D)", "category": "not fulfilled"}
{"compound": "CC(O)C1(C(=O)Nc2sc3c(c2C(N)=O)CC(C)(C)OC3(C)C)CC1 (centres unmarked) [Compound 59]", "testedTarget": "CFTR G551D mutant (Homo sapiens, UniProt P13569, G551D)", "category": "not fulfilled"}
{"compound": "CC1(C)Cc2c(sc(NC(=O)[C@@H](O)C(C)(C)C)c2C(N)=O)C(C)(C)O1 [Compound 76]", "testedTarget": "CFTR G551D mutant (Homo sapiens, UniProt P13569, G551D)", "category": "fulfilled"}

Task item: EC50 under 2000 nM? Item: CCCc1c[nH]nc1C(=O)Nc1sc2c(c1C(N)=O)CC(C)(C)OC2(C)C [Compound 71]
Reply: fulfilled

Task item: Here's an entry: COC/C=C/c1c[nH]nc1C(=O)Nc1sc2c(c1C(N)=O)CC(C)(C)OC2(C)C [Compound 63] . Is its EC50 below 2000 nM?
Reply: fulfilled

Task item: Item CC1(C)Cc2c(sc(NC(=O)C(C)(C)CO)c2C(N)=O)C(C)(C)O1 [Compound 10] : EC50 beneath 2000 nM, strictly?
Reply: not fulfilled

Task item: Quick check: does CC1(C)Cc2c(sc(NC(=O)CO)c2C(N)=O)C(C)(C)O1 [Compound 66] have EC50 under 2000 nM?
Reply: not fulfilled

###

# pEC50 listing for each entry below
# testedTarget: CFTR-G1349D (Homo sapiens, UniProt P13569, G1349D)
# Sequence (P13569 whole entry G1349D): as the sequence (P13569 whole entry R117H) above, with H117R, G1349D counted along it
# test: YFP-halide influx assay for the CFTR-G1349D
# conditionsUsed: CFTR-G1349D mutant; read-out: EC50 measured by YFP-halide influx assay for the CFTR-G1349D
Notebook: values listed as pEC50 are -log10 of the concentration (mol/L).

{"compound": "CC1(C)Cc2c(sc(NC(=O)C3(CO)CC3)c2C(N)=O)C(C)(C)O1", "pEC50": 6.24}

Value of measured pEC50 for the entry "CC1(C)Cc2c(sc(NC(=O)c3cc(C(F)(F)F)[nH]n3)c2C(N)=O)C(C)(C)O1" : 7.12

Entry "CC1(C)Cc2c(sc(NC(=O)c3ccn(CC(F)(F)F)n3)c2C(N)=O)C(C)(C)O1" , pEC50 reported as 6.27

Per the record, "CC1(C)Cc2c(sc(NC(=O)C3(O)CCOCC3)c2C(N)=O)C(C)(C)O1" has pEC50 of 5.48

pEC50 reported for this compound "CC1(C)Cc2c(sc(NC(=O)c3n[nH]cc3Br)c2C(N)=O)C(C)(C)O1" : 6.94

# compound "CC1(C)Cc2c(sc(NC(=O)C3(CO)CCC3)c2C(N)=O)C(C)(C)O1" ; its pEC50 = 5.72
